Reference source: ChEMBL document CHEMBL3885861

Entries and their MCV
# Organism: Rattus norvegicus
# assay-name: Open TG-GATES - Regimen: Single
# Type: toxicity, organism-based, Sprague-Dawley
# Set-up: regimen Single, gender Male, age 6 weeks
# assay-conditions: in vivo, po, 0 mg/kg, 3 h, tissue Blood, route gavage, dose level Control
Report the value in fL with no unit label.

# molecule, recorded-endpoint, value-measured
records = [
    ("O=c1ccc2ccccc2o1", "MCV", 65.8),
    ("CCN(CC)C(=S)SSC(=S)N(CC)CC", "MCV", 63.8),
]

Give the measured MCV of CCCCNC(=O)NS(=O)(=O)c1ccc(C)cc1 [TOLBUTAMIDE] . 64.8

Give the measured MCV of COc1ccc([C@@H]2Sc3ccccc3N(CCN(C)C)C(=O)[C@@H]2OC(C)=O)cc1 . 67

Give the measured MCV of CN(CCOc1ccc(CC2SC(=O)NC2=O)cc1)c1ccccn1.O=C(O)/C=C\C(=O)O (stereo not given) [ROSIGLITAZONE MALEATE] . 64.7

Give the measured MCV of CN(C/C=C/C#CC(C)(C)C)Cc1cccc2ccccc12 . 64.7

---

# Species: Rattus norvegicus
# assay-name: Open TG-GATES - Regimen: Single
# Format: toxicity, organism-based, Sprague-Dawley
# Set-up: regimen Single, gender Male, age 6 weeks
# assay-conditions: in vivo, po, 0 mg/kg, 3 h, tissue Blood, route gavage, dose level Control
recorded-endpoint: Plat (x10_4/uL)
Report the value in x10_4/uL with no unit label.

Here are 3 molecules together with their reported answers.
# molecule, Plat [x10_4/uL]
data = [
    ("CCO", 110.3),
    ("CC(=O)[C@@]1(O)CC[C@H]2[C@@H]3C=C(Cl)C4=CC(=O)CC[C@]4(C)[C@H]3CC[C@@]21C", 111.7),
    ("CC(S)C(=O)NCC(=O)O (stereo not drawn)", 120.4),
]

Give the measured Plat of O=C(O)c1ccccc1Nc1ccccc1 . 119.2

Give the measured Plat of CN(CCOc1ccc(CC2SC(=O)NC2=O)cc1)c1ccccn1.O=C(O)/C=C\C(=O)O (stereo not drawn) [ROSIGLITAZONE MALEATE] . 123.6

Give the measured Plat of O=c1ccc2ccccc2o1 . 106.1

Give the measured Plat of CN(C/C=C/C#CC(C)(C)C)Cc1cccc2ccccc12 . 121.7

Give the measured Plat of CCN(CC)C(=S)SSC(=S)N(CC)CC . 98.3

---

# Species: Rattus norvegicus
# assay-name: Open TG-GATES - Regimen: Daily Repeat
# Assay type: toxicity, organism-based, Sprague-Dawley
# Set-up: regimen Daily Repeat, gender Male, age 6 weeks
# assay-conditions: in vivo, po, 300 mg/kg, 72 h, tissue Plasma, route gavage, dose level Middle, time 3 day
recorded-endpoint: K (meq/L)
Report the value in meq/L with no unit label.

# compound, K / meq/L
measured = [
    ("CCCCNC(=O)NS(=O)(=O)c1ccc(C)cc1 [TOLBUTAMIDE]", 4),
    ("CC(S)C(=O)NCC(=O)O (centres undefined)", 4.4),
    ("CC(=O)[C@@]1(O)CC[C@H]2[C@@H]3C=C(Cl)C4=CC(=O)CC[C@]4(C)[C@H]3CC[C@@]21C", 4.6),
]

Give the measured K of O=C(O)c1ccccc1Nc1ccccc1 . 4.3

---

# Organism: Rattus norvegicus
# assay-name: Open TG-GATES - Regimen: Daily Repeat
# Format: toxicity, organism-based, Sprague-Dawley
# Parameters: regimen Daily Repeat, gender Male, age 6 weeks
# assay-conditions: in vivo, po, 1000 mg/kg, […], tissue Blood, route gavage, dose level High, time 7 day
Entries and their Eos

Here are 3 compounds together with their reported answers.
# compound, Eos
records = [
    ("CCCCNC(=O)NS(=O)(=O)c1ccc(C)cc1 [TOLBUTAMIDE]", "0.6%"),
    ("O=C(O)c1ccccc1Nc1ccccc1", "0.7%"),
    ("CC(=O)[C@@]1(O)CC[C@H]2[C@@H]3C=C(Cl)C4=CC(=O)CC[C@]4(C)[C@H]3CC[C@@]21C", "0.8%"),
]

// below: Eos requested for another compound
Give the measured Eos of CC(S)C(=O)NCC(=O)O (centres undefined) . 1%

---

# Species: Rattus norvegicus
# assay-name: Open TG-GATES - Regimen: Single
# Assay type: toxicity, organism-based, Sprague-Dawley
# Parameters: regimen Single, gender Male, age 6 weeks
# assay-conditions: in vivo, po, 0 mg/kg, 9 h, tissue Blood, route gavage, dose level Control
Entries and their Bas
Please give the number followed by its unit.

Here are 5 molecules together with their reported answers.
# molecule, Bas
rows = [
    ("CN(C/C=C/C#CC(C)(C)C)Cc1cccc2ccccc12", "0.6%"),
    ("CN(C)CCCN1c2ccccc2Sc2ccc(Cl)cc21", "0.4%"),
    ("CCCCNC(=O)NS(=O)(=O)c1ccc(C)cc1 [TOLBUTAMIDE]", "0.2%"),
    ("CCO", "0%"),
    ("CCN(CC)C(=S)SSC(=S)N(CC)CC", "0%"),
]

// below: Bas requested for another molecule
Give the measured Bas of O=c1ccc2ccccc2o1 . 0%

---

# Species: Rattus norvegicus
# assay-name: Open TG-GATES - Regimen: Single
# Assay type: toxicity, organism-based, Sprague-Dawley
# Parameters: regimen Single, gender Male, age 6 weeks
# assay-conditions: in vivo, po, 0 mg/kg, 3 h, tissue Plasma, route gavage, dose level Control
Rule: TC under 80 mg/dL gives Not fulfilled, otherwise Fulfilled.

# compound, class-name
measured = [
    ("CCO", "Fulfilled"),
    ("O=C(O)c1ccccc1Nc1ccccc1", "Not fulfilled"),
]

Can CN(C/C=C/C#CC(C)(C)C)Cc1cccc2ccccc12 be said to have TC at or above 80 mg/dL? Fulfilled

Can COc1cc2ncnc(Nc3ccc(F)c(Cl)c3)c2cc1OCCCN1CCOCC1 be said to have TC at or above 80 mg/dL? Fulfilled

Can CN(C)CCCN1c2ccccc2Sc2ccc(Cl)cc21 be said to have TC at or above 80 mg/dL? Not fulfilled

Can Nc1ccc(Cc2ccc(N)cc2)cc1 be said to have TC at or above 80 mg/dL? Not fulfilled

Can COc1ccc([C@@H]2Sc3ccccc3N(CCN(C)C)C(=O)[C@@H]2OC(C)=O)cc1 be said to have TC at or above 80 mg/dL? Fulfilled

Can CC(=O)[C@@]1(O)CC[C@H]2[C@@H]3C=C(Cl)C4=CC(=O)CC[C@]4(C)[C@H]3CC[C@@]21C be said to have TC at or above 80 mg/dL? Not fulfilled

Can CCN(CC)C(=S)SSC(=S)N(CC)CC be said to have TC at or above 80 mg/dL? Not fulfilled

Can NS(=O)(=O)c1cc(C(=O)O)c(NCc2ccco2)cc1Cl [FUROSEMIDE] be said to have TC at or above 80 mg/dL? Not fulfilled

Can CC(S)C(=O)NCC(=O)O (centres undefined) be said to have TC at or above 80 mg/dL? Not fulfilled

Can CN(CCOc1ccc(CC2SC(=O)NC2=O)cc1)c1ccccn1.O=C(O)/C=C\C(=O)O (centres undefined) [ROSIGLITAZONE MALEATE] be said to have TC at or above 80 mg/dL? Not fulfilled

---

Entries and their Fbg
# Species on record: Rattus norvegicus
# assay-name: Open TG-GATES - Regimen: Daily Repeat
# Type: toxicity, organism-based, Sprague-Dawley
# Parameters: regimen Daily Repeat, gender Male, age 6 weeks
# assay-conditions: in vivo, po, 300 mg/kg, 72 h, tissue Blood, route gavage, dose level Middle, time 3 day
Report the value in mg/dL with no unit label.

Give the measured Fbg of CC(=O)[C@@]1(O)CC[C@H]2[C@@H]3C=C(Cl)C4=CC(=O)CC[C@]4(C)[C@H]3CC[C@@]21C . 334.4

Give the measured Fbg of O=C(O)c1ccccc1Nc1ccccc1 . 293.6

Give the measured Fbg of CC(S)C(=O)NCC(=O)O (centres undefined) . 299

Give the measured Fbg of CCCCNC(=O)NS(=O)(=O)c1ccc(C)cc1 [TOLBUTAMIDE] . 287.2

---

Entries and their TERMINAL_BW
# Species: Rattus norvegicus
# assay-name: Open TG-GATES - Regimen: Daily Repeat
# Format: toxicity, organism-based, Sprague-Dawley
# Parameters: regimen Daily Repeat, gender Male, age 6 weeks
# assay-conditions: in vivo, po, 100 mg/kg, 72 h, route gavage, dose level Low, time 3 day
Report the value in g with no unit label.

Here are 3 compounds together with their reported answers.
# compound, recorded-endpoint, value-measured
records = [
    ("O=C(O)c1ccccc1Nc1ccccc1", "TERMINAL_BW", 236.5),
    ("CC(=O)[C@@]1(O)CC[C@H]2[C@@H]3C=C(Cl)C4=CC(=O)CC[C@]4(C)[C@H]3CC[C@@]21C", "TERMINAL_BW", 229.4),
    ("CCCCNC(=O)NS(=O)(=O)c1ccc(C)cc1 [TOLBUTAMIDE]", "TERMINAL_BW", 233.9),
]

Give the measured TERMINAL_BW of CC(S)C(=O)NCC(=O)O (centres undefined) . 228.4
